- Tested on: CW-2 (Colorectal Carcinoma)
- procedure summary: Bliss excess, mean over the matrix (fraction); higher = more synergy;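 also: after 72 h of two-drug dosing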
# Bliss excess per entry
The answer should be a number; do not append a unit.

- compound: "CN(C)CCCOc1ccc(-c2ccc3ncc4c(c3c2)n(C2CCOCC2)c(=O)n4C)cn1 [AZD0156] + C=CCn1c(=O)c2cnc(Nc3ccc(N4CCN(C)CC4)cc3)nc2n1-c1cccc(C(C)(C)O)n1 [AZD1775] (first compound max 1 µM, partner max 1 µM)"
  Bliss excess: -0.0106

Recorded Bliss excess for CN(CCO)CC[C@H](CSc1ccccc1)Nc1ccc(S(=O)(=O)NC(=O)c2ccc(N3CCC([C@@H](O)c4ccccc4-c4ccc(Cl)cc4)CC3)cc2)cc1S(=O)(=O)C(F)(F)F [AZD4320] + C[C@@H]1COCCN1C2=NC(=NC(=C2)C3(CC3)[S@](=N)(=O)C)C4=C5C=CNC5=NC=C4 [AZD6738] (first compound max 1 µM, 7x7, partner max 10 µM) , please?
-0.0321

###

- Tested on: DMS-114 (Small Cell Lung Carcinoma)
- procedure summary: Bliss excess, mean over the matrix (fraction); higher = more synergy
property: Bliss excess
The answer should be a number; do not append a unit.

Some compounds with known Bliss excess results, for comparison:
- compound: "CC1(C)CCC(CN2CCN(c3ccc(C(=O)NS(=O)(=O)c4ccc(NCC5CCOCC5)c([N+](=O)[O-])c4)c(Oc4cnc5[nH]ccc5c4)c3)CC2)=C(c2ccc(Cl)cc2)C1 [Venetoclax] + COc1cc(Nc2ncc3c(n2)-c2ccc(Cl)cc2C(c2c(F)cccc2OC)=NC3)ccc1C(=O)O [Alisertib] (first compound max 1 µM, 7x7, partner max 10 µM)"
  target under test: "DMS-114 (Small Cell Lung Carcinoma)"
  quantitative result: 0.0341
- compound: "NC1(C(=O)N[C@@H](CCO)c2ccc(Cl)cc2)CCN(c2ncnc3[nH]ccc23)CC1 [Capivasertib] + CCN(CCO)CCCOc1ccc2c(Nc3cc(CC(=O)Nc4cccc(F)c4)[nH]n3)ncnc2c1 [AZD2811] (first compound max 10 µM, 7x7, partner max 1 µM)"
  target under test: "DMS-114 (Small Cell Lung Carcinoma)"
  quantitative result: 0.0039
- compound: "CC1(C)CCC(CN2CCN(c3ccc(C(=O)NS(=O)(=O)c4ccc(NCC5CCOCC5)c([N+](=O)[O-])c4)c(Oc4cnc5[nH]ccc5c4)c3)CC2)=C(c2ccc(Cl)cc2)C1 [Venetoclax] + C=CCn1c(=O)c2cnc(Nc3ccc(N4CCN(C)CC4)cc3)nc2n1-c1cccc(C(C)(C)O)n1 [AZD1775] (first compound max 1 µM, partner max 1 µM)"
  target under test: "DMS-114 (Small Cell Lung Carcinoma)"
  quantitative result: 0.0056
- compound: "COc1cc2c(cc1OCCCCCOc1cc3c(cc1OC)C(=O)N1C=C(C)C[C@H]1C=N3)N=C[C@@H]1CC(C)=CN1C2=O [SG3199] + O=C(c1cc(Cc2n[nH]c(=O)c3ccccc23)ccc1F)N1CCN(C(=O)C2CC2)CC1 [Olaparib] (first compound max 0.001 µM, 7x7, partner max 10 µM)"
  target under test: "DMS-114 (Small Cell Lung Carcinoma)"
  quantitative result: -0.0398
- compound: "C[C@@H](Nc1cc(F)cc(F)c1)c1cc(C(=O)N(C)C)cc2c(=O)cc(N3CCOCC3)oc12 [AZD8186] + C1CN(CCC1(C(=O)N[C@@H](CCO)C2=CC=C(C=C2)Cl)N)C3=NC=NC4=C3C=CN4 [AZD5363] (first compound max 10 µM, 7x7, partner max 10 µM)"
  target under test: "DMS-114 (Small Cell Lung Carcinoma)"
  quantitative result: 0.0545
- compound: "CC1(C)CCC(CN2CCN(c3ccc(C(=O)NS(=O)(=O)c4ccc(NCC5CCOCC5)c([N+](=O)[O-])c4)c(Oc4cnc5[nH]ccc5c4)c3)CC2)=C(c2ccc(Cl)cc2)C1 [Venetoclax] + CN(C)CCCOc1ccc(-c2ccc3ncc4c(c3c2)n(C2CCOCC2)c(=O)n4C)cn1 [AZD0156] (first compound max 1 µM, 7x7, partner max 1 µM)"
  target under test: "DMS-114 (Small Cell Lung Carcinoma)"
  quantitative result: -0.0436
- compound: "Cc1c2c(nn1C)CSCc1cc(n(C)n1)CSc1cc(c3ccccc3c1)OCCCc1c(C(=O)O)n(C)c3c-2c(Cl)ccc13 [AZD5991] + Nc1ccn([C@@H]2O[C@H](CO)[C@@H](O)C2(F)F)c(=O)n1 [Gemcitabine] (first compound max 1 µM, 7x7, partner max 0.3 µM)"
  target under test: "DMS-114 (Small Cell Lung Carcinoma)"
  quantitative result: 0.07
- compound: "Cc1cc2ncnn2cc1Nc1ncc2c(n1)n(C1CCOCC1)c(=O)n2C [AZD7648] + C=CCn1c(=O)c2cnc(Nc3ccc(N4CCN(C)CC4)cc3)nc2n1-c1cccc(C(C)(C)O)n1 [AZD1775] (first compound max 10 µM, partner max 1 µM)"
  target under test: "DMS-114 (Small Cell Lung Carcinoma)"
  quantitative result: -0.0151

Recorded Bliss excess for O=C(c1cc(Cc2n[nH]c(=O)c3ccccc23)ccc1F)N1CCN(C(=O)C2CC2)CC1 [Olaparib] + CC1(C)CCC(CN2CCN(c3ccc(C(=O)NS(=O)(=O)c4ccc(NCC5CCOCC5)c([N+](=O)[O-])c4)c(Oc4cnc5[nH]ccc5c4)c3)CC2)=C(c2ccc(Cl)cc2)C1 [Venetoclax] (first compound max 10 µM, 7x7, partner max 1 µM) , please?
-0.0446

Recorded Bliss excess for C[C@@H]1COCCN1c1cc(C2([S@](C)(=N)=O)CC2)nc(-c2ccnc3[nH]ccc23)n1 [AZD6738] + O=C(c1cc(Cc2n[nH]c(=O)c3ccccc23)ccc1F)N1CCN(C(=O)C2CC2)CC1 [Olaparib] (first compound max 10 µM, 7x7, partner max 10 µM) , please?
0.0254

Recorded Bliss excess for Cc1c2c(nn1C)CSCc1cc(n(C)n1)CSc1cc(c3ccccc3c1)OCCCc1c(C(=O)O)n(C)c3c-2c(Cl)ccc13 [AZD5991] + CC(=O)O[C@H]1C(=O)[C@@]2(C)[C@H]([C@H](OC(=O)c3ccccc3)[C@]3(O)C[C@H](OC(=O)[C@H](O)[C@@H](NC(=O)c4ccccc4)c4ccccc4)C(C)=C1C3(C)C)[C@]1(OC(C)=O)CO[C@@H]1C[C@@H]2O [Paclitaxel] (first compound max 1 µM, 7x7, partner max 3 µM) , please?
0.0975

Reference source: the supplement of paper PMC11061612
